Biological target: OR56B4 (Homo sapiens)
Sequence (whole entry): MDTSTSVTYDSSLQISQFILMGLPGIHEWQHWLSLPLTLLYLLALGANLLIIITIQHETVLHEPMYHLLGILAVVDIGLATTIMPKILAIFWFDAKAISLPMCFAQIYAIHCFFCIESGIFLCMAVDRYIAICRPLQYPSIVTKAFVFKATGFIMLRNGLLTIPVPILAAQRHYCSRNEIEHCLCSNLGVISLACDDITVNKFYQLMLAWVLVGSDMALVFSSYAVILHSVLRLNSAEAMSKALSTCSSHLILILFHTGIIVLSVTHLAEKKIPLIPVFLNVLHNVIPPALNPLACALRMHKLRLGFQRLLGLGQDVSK
Conditions: stereoisomer not certain
Outcome codes: 1 (active), -1 (inactive)

- Compound: "CCCCCCC=CCCC=O"
  Class: -1
- Compound: "CCCC(S)CCOC(C)=O (centres undefined)"
  Class: -1
- Compound: "CCC(S)C(C)CO (centres undefined)"
  Class: -1
- Compound: "CC(CO)CS (centres undefined)"
  Class: -1
- Compound: "CCC1OC(C)=C(O)C1=O (centres undefined)"
  Class: -1
- Compound: "CC1=C(O)C(=O)OC1C (centres undefined)"
  Class: -1
- Compound: "Cc1cnc(C)c(C)n1"
  Class: -1
- Compound: "CCC1OC(=O)C(O)=C1C (centres undefined)"
  Class: -1
- Compound: "CCCCC(S)C(C)CO (centres undefined)"
  Class: 1

---

Biological target: UniProt E9Q6Z7
Sequence (whole entry): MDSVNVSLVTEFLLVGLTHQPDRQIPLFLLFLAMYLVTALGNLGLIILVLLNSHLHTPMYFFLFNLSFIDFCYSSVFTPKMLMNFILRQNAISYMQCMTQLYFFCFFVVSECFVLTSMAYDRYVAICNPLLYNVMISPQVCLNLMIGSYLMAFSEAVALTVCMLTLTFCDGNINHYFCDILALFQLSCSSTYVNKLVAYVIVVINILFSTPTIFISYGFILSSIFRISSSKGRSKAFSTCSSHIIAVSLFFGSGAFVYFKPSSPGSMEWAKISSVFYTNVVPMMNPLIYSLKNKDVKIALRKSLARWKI
Conditions: stereoisomer not certain
Outcome codes: Yes for active, No for inactive

- Compound: "C=C(C)C1CCC(C)C(O)C1 (stereo unspecified)"
  System name: "UniProt E9Q6Z7"
  Class: "No"
- Compound: "CCCCOC=O"
  System name: "UniProt E9Q6Z7"
  Class: "No"
- Compound: "CCC=CCCCCC=O"
  System name: "UniProt E9Q6Z7"
  Class: "No"
- Compound: "CC(C)=C1CCC(C)CC1=O (stereo unspecified)"
  System name: "UniProt E9Q6Z7"
  Class: "No"
- Compound: "O=C1CCOc2ccccc21"
  System name: "UniProt E9Q6Z7"
  Class: "No"
- Compound: "CNc1ccccc1C(=O)OC"
  System name: "UniProt E9Q6Z7"
  Class: "No"
- Compound: "Cc1ccccc1OC(=O)C(C)C"
  System name: "UniProt E9Q6Z7"
  Class: "No"
- Compound: "CC(=O)OCC=C(C)C"
  System name: "UniProt E9Q6Z7"
  Class: "No"
- Compound: "CCCCCC=O"
  System name: "UniProt E9Q6Z7"
  Class: "No"
- Compound: "CCCCCC(=Cc1ccccc1)C(OC)OC"
  System name: "UniProt E9Q6Z7"
  Class: "No"
- Compound: "CC=CC(=O)C1=C(C)CCCC1(C)C"
  System name: "UniProt E9Q6Z7"
  Class: "No"
- Compound: "CCCCCOC(=O)CCC"
  System name: "UniProt E9Q6Z7"
  Class: "No"
- Compound: "CC1(C)CC(=O)CC(=O)C1"
  System name: "UniProt E9Q6Z7"
  Class: "No"
- Compound: "CC1CC=CCCCCCCCCCC(=O)C1 (stereo unspecified)"
  System name: "UniProt E9Q6Z7"
  Class: "No"
- Compound: "CCCCCCCCCC(=O)[O-].[H+]"
  System name: "UniProt E9Q6Z7"
  Class: "No"
- Compound: "CCC(=O)C(=O)CC"
  System name: "UniProt E9Q6Z7"
  Class: "No"
- Compound: "O=C([O-])CCCCCCC(=O)[O-].[H+].[H+]"
  System name: "UniProt E9Q6Z7"
  Class: "No"
- Compound: "CCCCC(=O)CC"
  System name: "UniProt E9Q6Z7"
  Class: "No"
- Compound: "C=C(C)C1CCC2(C)OC2C1 (stereo unspecified)"
  System name: "UniProt E9Q6Z7"
  Class: "No"
- Compound: "CCCCCCC(C)O (stereo unspecified)"
  System name: "UniProt E9Q6Z7"
  Class: "Yes"
- Compound: "CCOC(=O)C(C)C"
  System name: "UniProt E9Q6Z7"
  Class: "No"
- Compound: "CCCC(C)C(=O)OCC (stereo unspecified)"
  System name: "UniProt E9Q6Z7"
  Class: "No"
- Compound: "CCCCCCCCO"
  System name: "UniProt E9Q6Z7"
  Class: "No"
- Compound: "CCCCC=O"
  System name: "UniProt E9Q6Z7"
  Class: "No"
- Compound: "CCc1ccccc1O"
  System name: "UniProt E9Q6Z7"
  Class: "No"
- Compound: "CCCC(=O)C(C)=O"
  System name: "UniProt E9Q6Z7"
  Class: "No"
- Compound: "CC(=O)OC1(C)CCC23CC1C(C)(C)C2CCC3C (stereo unspecified)"
  System name: "UniProt E9Q6Z7"
  Class: "No"
- Compound: "C1CCOCC1"
  System name: "UniProt E9Q6Z7"
  Class: "No"
- Compound: "Cc1ccc2c(c1)OCC(=O)CO2"
  System name: "UniProt E9Q6Z7"
  Class: "No"
- Compound: "C=C(C)C1CCC(C)C(=O)C1 (stereo unspecified)"
  System name: "UniProt E9Q6Z7"
  Class: "No"
- Compound: "O=C(O)C1CCC1"
  System name: "UniProt E9Q6Z7"
  Class: "No"
- Compound: "CCc1ncc(C)nc1CC"
  System name: "UniProt E9Q6Z7"
  Class: "No"
- Compound: "CCCCCCCCC=CC=O"
  System name: "UniProt E9Q6Z7"
  Class: "No"
- Compound: "CCCCCC=CCCC=O"
  System name: "UniProt E9Q6Z7"
  Class: "No"
- Compound: "COC(OC)c1ccccc1"
  System name: "UniProt E9Q6Z7"
  Class: "No"
- Compound: "CSSCc1ccco1"
  System name: "UniProt E9Q6Z7"
  Class: "No"
